- Test system: HOP-92
- method notes: NCI tumour cell line growth inhibition, 48 h
Calls of active or inactive are those of the source. No stated cut-off is given here; in the data, active = GI50 up to about 1.1 µM and inactive = higher.
Possible outcomes: active, inactive

| molecule | target of assay | answer label |
| --- | --- | --- |
| CC(=O)N1CCc2c([nH]c3ccc(Br)cc23)C1c1ccccc1 (stereo not drawn) | HOP-92 | inactive |
| COC(=O)C12OCC34C(CC5C(C)=CC(=O)C(O)C5(C)C3C(O)C1O)OC(=O)C(OC(=O)CC(C)C)C24 (stereo not drawn) | HOP-92 | active |
| CN(Cc1ccccc1)Cn1ccnc1 | HOP-92 | inactive |
| COc1ccc(/C=C2\OC(=O)C(Cl)=C2c2ccc(OC)cc2)cc1 | HOP-92 | inactive |
| CCCCNc1c(CN)cnc2cc(Cl)ccc12 | HOP-92 | inactive |
| CC(C(=O)N1C(=O)N(C(=O)C(C)C(O)c2ccccc2)C(c2ccccc2)C1c1ccccc1)C(O)c1ccccc1 (stereo not drawn) | HOP-92 | inactive |
| CSC12c3cc(C)n(-c4ccc([N+](=O)[O-])cc4)c3CC(C)(C)CN1C(=O)C2Oc1ccccc1 (stereo not drawn) | HOP-92 | inactive |
| O=c1[c-](-c2ccccc2)[se]c(-c2ccccc2)[n+]1-c1ccccc1 | HOP-92 | inactive |
| CC(=O)OC/C=C/Cn1ncc(=O)[nH]c1=O | HOP-92 | inactive |
| CC(C)=C1CCC(CN2CCCC2)C1=O (stereo not drawn) | HOP-92 | inactive |
| O=C1c2cccc3cc4ccccc4c(c23)C(=O)N1CCNCCNCCNCCN1C(=O)c2cccc3cc4ccccc4c(c23)C1=O | HOP-92 | active |
| Cc1ccc(-c2nc(Cc3n[nH]c(-c4ccc(C)cc4)n3)n[nH]2)cc1 | HOP-92 | inactive |
| NC1=NN(c2ccccc2)C(=O)C1/C(=N\NC(=O)c1cc2ccccc2cc1O)C(=O)Nc1ccc(Cl)c(Cl)c1 (stereo not drawn) | HOP-92 | inactive |

----------
- Test system: HL-60
- method notes: NCI tumour cell line growth inhibition, 48 h
Activity calls are given as the source filed them. Rule as the data show it: active = GI50 up to about 1.1 µM and inactive = higher.
Possible outcomes: t (active), f (inactive)

| molecule | answer label |
| --- | --- |
| CC(=O)C(=[N+]=[N-])C(=O)N(C)CCC#N | f |
| CNC(=O)N1N[C@H](c2ccccc2)[C@@H]1c1ccccc1.OB(O)O | f |
| COc1cc(Nc2nc3cc(C(F)(F)F)ccc3nc2C(=O)O)cc(OC)c1OC | f |
| CSc1c(C(=O)Nc2ccc(C)cc2)c(N)n(N)c(=O)c1C#N | f |
| CC1(C)OCC(C2OC(On3nnc4ccc(Cl)cc43)C3OC(C)(C)OC23)O1 (centres undefined) | f |
| O=C1C(NCCF)=C(Cl)C(=O)c2ncccc21 | t |
| NNc1ncc2c(n1)-c1ccccc1OC2 | f |
| CC(=O)C1C(c2ccc(N(C)C)cc2)c2cc3c(cc2OC1(C)O)OCO3 (centres undefined) | f |
| Nc1cccc2c1C1=NNC(=O)CC1C2 (centres undefined) | f |
| N#C/C(=C(\O)C(=O)O)c1ccc(-c2cccc3ccccc23)cc1 | f |
| CC1(C)CC[C@]2(C(=O)O)CC[C@]3(C)C(=CC[C@@H]4[C@@]5(C)C[C@H](O)[C@H](O)[C@@](C)(CO)C5=CC[C@]43C)[C@@H]2C1 | f |
| COc1cc(C2c3cc4c(cc3CC3COC(=O)N32)OCO4)cc(OC)c1OC (centres undefined) | f |
| CS/C(=N/C#N)NCCc1c[nH]c2ccccc12 | f |
| Cc1sc2nc3n(c(=O)c2c1C)N=C(c1ccc([N+](=O)[O-])cc1)CS3 | f |
